target-of-assay: LHRH binding sites on EFO-27 human ovarian cancer cells (human)
method: competition with [125I-Tyr8]BRU-2477 on EFO-27 cells
Non-standard residues stand in square brackets, D forms with d. Primed or numbered codes have the meaning given here. azaGly′ = aza-glycine residue at the C-terminus, with NH2; Bpa = N[C@@H](Cc1ccc(C(=O)c2ccccc2)cc1)C(=O)O; d2Nal = N[C@H](Cc1ccc2ccccc2c1)C(=O)O; DO3A10CM = not defined here; Ampa4 = not defined here; Ampc4 = not defined here; Hegly = not defined here; Mogly = not defined here; Mpgly = not defined here; azaGly = NNC(=O)O
quantity-measured: EC50 (nM)

Example entries and their recorded answers appear below.
DO3A10CM-[d2Nal]RWSH[dR]W[Bpa][Ampc4][azaGly′]-NH2 (reading uncertain) [BRU-3062] = 320
XRWSXXWXPX (DO3A10CM on N-terminus; AA1 Dnal2; AA5 Cit; AA6 Darg; AA8 Bpa4; AA10 azaGly-NH2) [BRU-3030] = 930
XRWSHXWXPX (DO3A10CM on N-terminus; AA1 Dtyr; AA6 Darg; AA8 Bpa4; AA10 azaGly-NH2) [BRU-3054] = 430
DO3A10CM-G[Mpgly]HWSH[dR]W[Bpa]P[azaGly]-NH2 (reading uncertain) [BRU-2793] = 1340
XRXSHXWXPX (DO3A10CM on N-terminus; AA1 Dnal2; AA3 Amfe4; AA6 Darg; AA8 Bpa4; AA10 azaGly-NH2) [BRU-3107] = 380
DO3A10CM-G[Mogly]HWSH[dR]W[Bpa]P[azaGly]-NH2 (reading uncertain) [BRU-2796] = 340
XRWSHXWXPX (DO3A10CM on N-terminus; AA1 Thy; AA6 Darg; AA8 Bpa4; AA10 azaGly-NH2) [BRU-3069] = 380
DO3A10CM-[d2Nal][Ampa4]WSH[dR]W[Bpa]P[azaGly′]-NH2 (not fully specified; printed as DO3A10CM-Dnal2-Ampa4-Trp-Ser-His-Darg-Trp-Bpa4-Pro-azaGly-NH2; reading uncertain) [BRU-3059] = 410

a = XRWSHXWXXX (DO3A10CM on N-terminus; AA1 Dnal2; AA6 Darg; AA8 Bpa4; AA9 Thz; AA10 azaGly-NH2) [BRU-3072]
b = DO3A10CM-G[Hegly]HWSHRW[Bpa]P[azaGly]-NH2 (reading uncertain; also: AA6 Darg prints R) [BRU-2873]
Inquiry: Hi team, can someone confirm which has the larger EC50: a or b ? Thanks. Which one? Tell me its label.
Reply text: b

A = XRWSHXWXPX (DO3A10CM on N-terminus; AA1 Datdc2; AA6 Darg; AA8 Bpa4; AA10 azaGly-NH2) [BRU-3063]
B = XRWSHXWXP (AA1 Sar; AA6 Darg; AA8 Bpa4; AA10 Da15o3pt) [BRU-3007]
Inquiry: Given the two records A and B , choose the one whose EC50 value is lower. Which one? Tell me its label.
Reply text: B
(B: 220 nM, A: 470 nM)

All values here come from patent US20120045393A1.
